# Assay Info: Tanguay_ZF_120hpf_TR_legacy: (Legacy) Oregon State University Tanguay Lab 120 Hour Post-fertilization zebrafish Assay for Touch Response (AID 2283667)
Results filed as inconclusive are left out. Calls of active or inactive are those of the source. Rule for the calls: active = hit-call score of the fitted dose curve at least 0.9, where 1 is the maximum; inconclusive = response in the unintended direction; inactive = score below 0.9.
Permitted responses: Yes for active, No for inactive

| Compound | Category |
| --- | --- |
| O=C1OC(=O)C2C3C=CC(C3)C12 (stereo not given) | No |
| CCOCCO | No |

Please share the test call associated with C1N2CN3CN1CN(C2)C3 .
No

Give the logged outcome of this assay for the following compound: COc1ccc(-n2nc(C(F)F)cc2-c2ccc(S(C)=O)cc2)cc1 (stereo not given)
Yes

Please state the recorded outcome for this compound: O=C(NS(=O)(=O)/C=C/c1ccccc1)c1ccc(F)cc1Cl
No

// return assay outcome for CC(=O)c1ccc2c(c1)[C@H](NC(=O)c1ccc(F)cc1)[C@@H](O)C(C)(C)O2
No

Called result for Clc1nc(Cl)c(Cl)c(Cl)c1Cl
No

Recorded test call requested for COc1cccc(-c2ccc(/C=C\CN3CCCCCC3)cc2Cl)c1
No

Test call for this compound, please: CCn1nc(Cc2ccccc2)cc1C1CCN(C[C@H]2C[C@H](N(C)[C@@H](C(=O)O)C(C)C)C[C@@H]2c2cccc(F)c2)CC1
No

Would you mind telling me which call this test gave O=C(OC[C@H]1O[C@@H](OC(=O)c2cc(O)c(O)c(OC(=O)c3cc(O)c(O)c(O)c3)c2)[C@H](OC(=O)c2cc(O)c(O)c(OC(=O)c3cc(O)c(O)c(O)c3)c2)[C@@H](OC(=O)c2cc(O)c(O)c(OC(=O)c3cc(O)c(O)c(O)c3)c2)[C@@H]1OC(=O)c1cc(O)c(O)c(OC(=O)c2cc(O)c(O)c(O)c2)c1)c1cc(O)c(O)c(OC(=O)c2cc(O)c(O)c(O)c2)c1 ?
No

# lookup: test call for CCOCCOCCOCCO
No

Can you look up the reported call for Cn1c(=O)cc(Oc2ccc(F)cc2F)c2cnc(NCC(C)(C)O)nc21 for me?
No

Test call, this compound: COCCOc1cc2cc(C(=O)NC3CCN(C(C)C)CC3)n(CC(=O)Nc3ccc(Cl)cn3)c2cn1
No

Short answer needed: outcome of this test for CC(C)CCCCCCCOC(=O)CCCCC(=O)OCCCCCCCC(C)C ?
No

I would be grateful if you could indicate the recorded call for On1ccccc1=S .
No

Assay result, entry CC/C(=C\C(=N/O)C(N)=O)C(C)[N+](=O)[O-] (stereo not given) — outcome?
No
